# System: CD2F1 mice, L1210 leukemia ip, survival T/C
# test: NCI In Vivo Anticancer Drug Screen. Data for tumor model L1210 Leukemia (intraperitoneal) in CD2F1 (CDF1) mice
# testParameters: endpoint: mean survival time; dose: 400.0 mg/kg/injection; schedule: Q04DX002 (ip); vehicle: saline with Tween-80; higher = longer survival
# Experimental: The antitumor activity of compounds was measured in mice bearing transplantable tumors. Survival or tumor size were measured and the results are expressed as the measurement made in the treated group (T) divided by the measurement made in the vehicle treated control group (C). The tumor model used in this assay is L1210 Leukemia (intraperitoneal) in CD2F1 (CDF1) mice
Toxic doses and inconclusive results are not listed.
measurementLabel: T/C

Recorded results for 3 molecules are shown here.
# T/C lookup, item O=C(O)C1Cc2c([nH]c3ccccc23)C2CC(C3CC4c5[nH]c6ccccc6c5CC(C(=O)O)N4C3=O)C(=O)N12 (stereo not drawn)
89 % of control

# T/C lookup, item CCOC(=O)c1ccc(NC(=O)Nc2ccc(Nc3ccccc3)cc2)cc1
87 % of control

# T/C lookup, item O=C(NO)c1cc(Br)cc(Br)c1O
103 % of control

Hey, quick one: what's T/C for each of these?
1. O=C(O)C1CCc2c(cnn2-c2ccc(Cl)cc2)C1 (stereo not drawn)
2. O=C1C2C3CCC(O3)C2C(=O)N1CC#CCN1C(=O)C2C3CCC(O3)C2C1=O (stereo not drawn)
3. COC(=O)c1ccc(OC)c(I)c1
4. NC(=O)C(CCCCC(C(N)=O)C(N)=O)C(N)=O
5. O=C(Nc1ccccc1)Nc1ccc2c(c1)oc1ccccc12

103 % of control
90 % of control
98 % of control
108 % of control
98 % of control

Hey, quick one: what's T/C for each of these?
1. CCOC(=O)/C=C(C)/C=C/C1C(C)=CCCC1(C)C (stereo not drawn)
2. COc1cc(Cl)ccc1NC(=O)Nc1cccc(Cl)c1
3. N#CC(c1cccc([N+](=O)[O-])c1)C(CC(=O)c1ccccc1)c1ccccc1 (stereo not drawn)
4. O=c1oc(/C=C/c2ccccc2)nc2ccccc12

1: 100 % of control; 2: 95 % of control; 3: 102 % of control; 4: 103 % of control

# T/C lookup, item O=C(O)COc1cc(F)c(Cl)cc1F
109 % of control
